- target_entity: HLA-A*68:23
- assay_remarks: IEDB peptide-MHC binding, purified MHC/competitive/fluorescence; filed as Kd, often an IC50 or EC50 that approximates it; bounds were set here for any values at or beyond the usual limits of such assays
- experimental_conditions: source organism: Yersinia pestis Nepal516
measurement_label: Kd

// query What value of measured Kd is listed for `TVYPKTHYV` ?
// result ≤ 100 pM

###

- target_entity: HLA-C*14:02
- assay_remarks: IEDB peptide-MHC binding, purified MHC/direct/fluorescence; filed as Kd, often an IC50 or EC50 that approximates it; bounds were set here for any values at or beyond the usual limits of such assays
- experimental_conditions: source organism: Pseudomonas aeruginosa 2192
pKd: −log10 of the molar value.
measurement_label: pKd

// query Give the measured pKd of `AYFATPASV` .
// result ≥ 9.00

###

- target_entity: HLA-B*07:02
- assay_remarks: IEDB peptide-MHC binding, purified MHC/direct/fluorescence; filed as Kd, often an IC50 or EC50 that approximates it; bounds were set here for any values at or beyond the usual limits of such assays
- experimental_conditions: source organism: SARS-CoV1
measurement_label: pKd
pKd is defined as minus the log10 of a concentration measured in mol/L.

// query Notebook: pull reported pKd for HLA-B*07:02, entry `VLWAHGFEL`
// result 5.21

###

- target_entity: HLA-B*07:02
- assay_remarks: IEDB peptide-MHC binding, purified MHC/direct/fluorescence; filed as Kd, often an IC50 or EC50 that approximates it; bounds were set here for any values at or beyond the usual limits of such assays
- experimental_conditions: source organism: Camelpox virus CMS
measurement_label: Kd

// query Give the measured Kd of `WQFAIHYSF` .
// result ≥ 20 µM

###

- target_entity: HLA-B*15:01
- assay_remarks: IEDB peptide-MHC binding, purified MHC/competitive/radioactivity; filed as Kd, often an IC50 or EC50 that approximates it; bounds were set here for any values at or beyond the usual limits of such assays
- experimental_conditions: source organism: Dengue virus 1 Brazil/97-11/1997
measurement_label: Kd (nM)
State just the number; it will be interpreted in nM.

// query What value of measured Kd is listed for `GQGPMKLVM` ?
// result 11.4

###

- target_entity: HLA-A*02:03
- assay_remarks: IEDB peptide-MHC binding, purified MHC/competitive/radioactivity; filed as Kd, often an IC50 or EC50 that approximates it; bounds were set here for any values at or beyond the usual limits of such assays
- experimental_conditions: source organism: Dengue virus 1 Nauru/West Pac/1974
measurement_label: Kd (nM)
Field format: number, assumed nM, no unit text.

// query Given the sequence `KLRDSYTQV` , what is its reported Kd?
// result 16

###

- target_entity: HLA-A*02:01
- assay_remarks: IEDB peptide-MHC binding, purified MHC/competitive/fluorescence; filed as Kd, often an IC50 or EC50 that approximates it; bounds were set here for any values at or beyond the usual limits of such assays
- experimental_conditions: source organism: Lassa virus Josiah
measurement_label: Kd (nM)
Provide only the numeric value, understood in nM.

// query Bench note: what Kd did `CMLDGGNML` show?
// result 2.97

###

- target_entity: HLA-A*02:01
- assay_remarks: IEDB peptide-MHC binding, purified MHC/competitive/radioactivity; bounds were set here for any values at or beyond the usual limits of such assays
- experimental_conditions: source organism: Rift Valley fever virus
measurement_label: pIC50
On this scale, pIC50 is minus log10 of a concentration expressed in M (mol/L).

// query Given the sequence `ILDAHSLYL` , what is its reported pIC50?
// result 8.89
